- Tested on: nerve injury-induced mechanical pain hypersensitivity
- test: Spinal Nerve Ligation (SNL) model, paw pressure test
- Type: in vivo, rat
- conditions: allometric FDA factor for the rat 6.2; human body weight 60 kg
reportedMetric: Human Equivalent Dose (HED) from SNL rat dose

smilesrecord=CO[C@@H]1[C@H](N(C)C(=O)c2ccccc2)C[C@H]2O[C@]1(C)n1c3ccccc3c3c4c(c5c6ccccc6n2c5c31)C(=O)NC4 measurement="39 mg"

----------
- studyTarget: FLT3 (Mus musculus)
- Construct: Primary neuronal cultures were established from lumbar (L4 to L6) dorsal root ganglia (DRG) of adult mice; endogenous in cells; host or cells: primary DRG neurons from adult mice
- Sequence (Q00342 28-1000): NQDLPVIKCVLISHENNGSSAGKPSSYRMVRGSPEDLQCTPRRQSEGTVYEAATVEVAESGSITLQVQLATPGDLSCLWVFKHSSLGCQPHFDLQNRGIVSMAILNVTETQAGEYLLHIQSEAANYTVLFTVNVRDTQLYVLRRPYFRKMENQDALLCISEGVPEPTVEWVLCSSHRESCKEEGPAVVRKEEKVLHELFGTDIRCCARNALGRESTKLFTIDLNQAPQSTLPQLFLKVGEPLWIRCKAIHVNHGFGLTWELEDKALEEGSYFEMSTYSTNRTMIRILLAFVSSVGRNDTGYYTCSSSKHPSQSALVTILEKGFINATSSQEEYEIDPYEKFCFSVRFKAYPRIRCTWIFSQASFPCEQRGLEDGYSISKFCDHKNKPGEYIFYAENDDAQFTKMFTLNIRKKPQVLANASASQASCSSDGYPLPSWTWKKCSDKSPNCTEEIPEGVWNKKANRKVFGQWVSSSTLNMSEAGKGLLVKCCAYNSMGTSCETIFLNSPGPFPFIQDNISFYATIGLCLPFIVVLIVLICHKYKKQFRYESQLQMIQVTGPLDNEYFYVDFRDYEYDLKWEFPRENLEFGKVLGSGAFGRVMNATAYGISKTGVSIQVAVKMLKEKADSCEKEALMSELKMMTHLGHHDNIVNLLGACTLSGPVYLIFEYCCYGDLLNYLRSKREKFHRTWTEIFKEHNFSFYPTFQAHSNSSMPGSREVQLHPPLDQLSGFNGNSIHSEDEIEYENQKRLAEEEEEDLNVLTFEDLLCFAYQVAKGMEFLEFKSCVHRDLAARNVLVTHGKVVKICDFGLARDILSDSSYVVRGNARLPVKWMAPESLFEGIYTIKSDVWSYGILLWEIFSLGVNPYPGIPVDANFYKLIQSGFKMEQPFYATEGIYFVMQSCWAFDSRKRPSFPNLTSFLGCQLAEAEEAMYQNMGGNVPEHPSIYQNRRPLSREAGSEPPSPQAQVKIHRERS
- test: FL potentiation of capsaicin-induced [Ca2+]i response in DRG neurons primary culture
- Type: cell-based, mice
- conditions: FL 0.56 nM, capsaicin 0.5 μM, non-linear regression, read-out: IC50 for inhibition of FL potentiation of the [Ca2+]i peak response to capsaicin
pIC50: −log10 of the molar value.
reportedMetric: pIC50

compound="CCN(CC)CCNC(=O)c1c(C)[nH]c(/C=C2\\C(=O)Nc3ccc(F)cc32)c1C [Sunitinib]" studytarget="FLT3 (Mus musculus)" measurement=9.15
